assay: in vivo; details: rat
property.name: half-life (h)

O=C(/C=C/c1ccc(Sc2ccccc2OC[C@H]2CC[C@@H](C(=O)O)CC2)c(C(F)(F)F)c1C(F)(F)F)N1CCOCC1 | 3.6
O=C(/C=C/c1ccc(Sc2cccc(O[C@H]3CC[C@@H](C(=O)O)CC3)c2)c(C(F)(F)F)c1C(F)(F)F)N1CCOCC1 | 2.6
